System: OVCAR-3 ovarian
Assay: NCI-60 one-dose screen, 48 h
Settings: 10 µM unless noted
Compounds without any hit were thinned out: in the full panel of roughly 83,000, 20% have a hit. Activity calls are given as the source filed them. How the source made its calls: active means growth percent below 10; inactive means the rest.
Outcomes: 1 for active, 0 for inactive

* O=C1/C(=C/c2ccc3c(c2)OCO3)SC(=S)N1CCc1ccc(O)cc1 | 0
* C=CC(=O)Nc1cccc(-c2nc(SC)nc(Nc3cccc(OC)c3)c2C#N)c1 | 0
* Oc1cccc(-c2nc(N3CCOCC3)c3c4c(sc3n2)CCCC4)c1 | 0
* COc1cccc(/C=N/NC(=O)c2ccccc2Nc2ccnc(C(F)(F)F)c2)c1O | 0
* CCC#CC[C@H](O)C/C=C1/C(=O)C=C[C@@H]1C/C=C\CCCC(=O)OC | 0
* O=C(COc1ccc(/C=C2\COc3ccccc3C2=O)cc1)Nc1nccs1 | 0
* N#Cc1c(-c2ccc(Cl)cc2)nc(N/N=C/c2cccc(Br)c2)nc1N1CCOCC1 | 0
* C=CC(COC(c1ccccc1)(c1ccccc1)c1ccccc1)N(CC)CC (stereo not given) | 0
* COc1ccc(S(=O)(=O)N2CCCCCC2)cc1NC(=O)c1[nH]c(C)c2c1CCCCC2=O | 0
* CN1CCN(CCCOc2cccc3nc(Nc4cc(Cl)cc(Cl)c4)ccc23)CC1 | 0
* Cn1c(=O)[nH]c(=O)c2nc(CCC(=O)NCCC(=O)O)c(=O)[nH]c21 | 0
* O=C(Nc1cccc2[nH]c(C(F)(F)F)nc12)c1ccc(-n2cnnn2)cc1 | 0
* COc1cc(-c2nn(C)nc2-c2cc3ccccc3s2)cc(OC)c1OC | 1
* O=C1c2ccccc2C(=O)c2c1ccc1[nH]c(-c3cccs3)nc21 | 0
* Cc1cc(N2CCOCC2)nc(NCc2cc(Nc3ccnc4cc(Cl)ccc34)ccc2F)n1 | 1
* Cn1cc(C(=O)c2nc(-c3c[nH]c4ccc(Br)cc34)no2)c2cc(F)ccc21 | 0
* CC(C)(C)CC(C)(C)c1ccc(OCCOCC[N+](C)(C)Cc2ccccc2)cc1 | 1
* CCCCCC(=O)Oc1ccc(/C(=C(\C)c2ccc(OC)cc2)c2ccc(OCCN3CCCCC3)cc2)cc1 | 0
* NC(=O)c1cc(Cl)ccc1NC(=O)/C=C/c1ccccc1 | 1
* COc1ccc(Nc2nc(SC)nc(-c3cccc([N+](=O)[O-])c3)c2C#N)cc1 | 0
* CC(=O)OCCC/C(=C/c1cc2ccccc2c2ccccc12)[N+](=O)[O-] | 1
* CC(C)n1c(/C=C/[C@@H](O)C[C@@H](O)CC(=O)O)c(-c2ccc(F)cc2)c2ccccc21 | 0
* COc1ccc(/C=C(\C#N)C(=O)Nc2cccc(Nc3nc(SC)nc(-c4cccc([N+](=O)[O-])c4)c3C#N)c2)cc1OC | 0
* O=C1c2cc3c(cc2-c2c1c1ccc(F)cc1c(=O)n2C[C@H](O)[C@@H](O)[C@H](O)CO)OCO3 | 1
* C=C1C(=O)O[C@H]2[C@H]1CC/C(COC(=O)NCc1ccc(OC)c(OC)c1)=C\CC[C@@]1(C)O[C@@H]21 | 0
* C=CC(=O)Nc1cccc(Nc2nc(SC)nc(-c3cccc([N+](=O)[O-])c3)c2C#N)c1 | 0
* CC(C)CSc1nc(N)nc2c1ncn2C1OC(CO)C(O)C1O (stereo not given) | 0
* OCC(O)c1nc2ccc3[nH]ncc3c2c2c1CCCC2 (stereo not given) | 0
* CCOC(=O)c1sc2nc(-c3cccc(O)c3)nc(N3CCOCC3)c2c1C | 0
* CC1=NN(c2nc(-c3ccc(Cl)cc3)c(C#N)c(N3CCOCC3)n2)C(=O)C1 | 0
* Nc1ccc(S(=O)(=O)O)c2ccc(N=Nc3ccc(N=Nc4ccc(S(=O)(=O)O)cc4)c4ccccc34)c(O)c12 | 0
* Clc1ccc2nc3nc4ccc[nH]c4cc3c2c1 | 0
* Cc1ccc(C(SCC(N)C(=O)O)(c2ccccc2)c2ccc(C)cc2)cc1 (stereo not given) | 1
* COc1cc2c(cc1-c1c(C)noc1C)ncc1nc(C3CCOCC3)n([C@H](C)COC(F)F)c12 | 0
* Clc1ccc2c(NCCCCNc3nc(N4CCOCC4)nc4ccccc34)ccnc2c1 | 1
* Cc1ccc2c(C(C[N+](=O)[O-])c3ccccc3)c(-c3ccccc3)[nH]c2c1 (stereo not given) | 1
* CN(Cc1cc(Cl)cc(Cl)c1O)Cc1cc(Cl)cc(Cl)c1O | 0
* CC(=O)Oc1ccc(Cl)cc1CN(C(C)=O)C1CCCCC1 | 0
* O=C(O)COc1ccc(Cl)cc1C1CCCCC1 | 0
* COc1cc(/C=C/c2cc(/C=C/c3ccc(O)c(OC)c3)n(-c3c(Cl)cccc3Cl)c(=O)n2)ccc1O | 0

====

System: MDA-MB-231 breast
Test: NCI-60 one-dose screen, 48 h
Settings: 10 µM unless noted
About 83,000 compounds went through this panel and 20% of them were active in at least one assay; those are over-represented in the sample as a whole. Activity calls are given as the source filed them. The calls were made as follows: active = growth percent below 10; inactive = the rest.
Outcomes: y for active, n for inactive

* COc1cccc(/C=N/NC(=O)c2ccccc2Nc2ccnc(C(F)(F)F)c2)c1O | n
* CC(C)(C)c1cc(/C=N\NC(=O)/C=C/C=C/c2ccc3c(c2)OCO3)c(O)c(C(C)(C)C)c1 | n
* O=C(N/N=C/c1c[nH]c2ccccc12)c1cc(-c2ccccc2)on1 | n
* CCOC(=O)c1c(CN2CCN(C)CC2)nc2ccc(Cl)cc2c1-c1ccccc1 | n
* CC[C@@H](C(=O)[C@@H](C)[C@@H](O)[C@H](C)[C@@H]1O[C@@H]([C@@H](CC)C(=O)O)CC[C@@H]1C)[C@H]1OC2(C=C[C@@H](O)[C@]3(CC[C@@](C)([C@H]4CC[C@](O)(CC)[C@H](C)O4)O3)O2)[C@H](C)C[C@@H]1C (stereo partly specified) | y
* COc1ccc(N=Nc2nccs2)c(O)c1 | n
* CCOc1cc2c(cc1OCC)C(c1cc(OC)c(O)cc1Cl)NCC2 (stereo unspecified) | n
* O=C1/C(=C/c2ccc(OCCCOc3ccc(Cl)cc3)cc2)N=C2SCCCN12 | n
* CC1=CC(=NN=c2cc(C)n([O-])c(C)c2)C=C(C)[N+]1=O | n
* C#CC(F)(F)[C@]1(O)CC[C@H]2[C@@H]3CCC4=CC(=O)CCC4=C3[C@@H](c3ccc(C(C)=O)cc3)C[C@@]21C | n
* c1csc(C2=NN3C(C2)c2ccccc2OC3c2ccncc2)c1 (stereo unspecified) | n
* NC(N)=N/N=C(/c1ccccc1)c1ccc(F)cc1 | y
* O=C1c2cc3c(cc2-c2c1c1cc(F)c(F)cc1c(=O)n2CCCn1ccnc1)OCO3 | n
* COc1cc(CNc2oc(-c3ccccc3)c(-c3ccccc3)c2C#N)cc(CN2CCN(C)CC2)c1O | n
* CC(C)C[C@@H](NC(=O)[C@@H](Cc1ccccc1)NC(=O)c1cnccn1)B1Oc2ccc(C[C@H](NC(=O)[C@H](Cc3ccc4c(c3)OB([C@@H](CC(C)C)NC(=O)[C@@H](Cc3ccccc3)NC(=O)c3cnccn3)O4)NC(=O)[C@@H](N)CC3CCC4OB([C@@H](CC(C)C)NC(=O)[C@@H](CC5CCCCC5)NC(=O)C5CNCCN5)OC4C3)C(=O)NCCCC[C@@H]3NC(=O)[C@@H](Cc4ccccc4)NC(=O)[C@H](CC(=O)O)NC(=O)CNC(=O)[C@H](CCCNC(=N)N)NC3=O)cc2O1 (stereo partly specified) | y
* NCCNc1nc(Nc2ccc(-c3nc4ccccc4[nH]3)cc2)c2cn[nH]c2n1 | n

====

System: NCI-H226 lung
Assay: NCI-60 one-dose screen, 48 h
Details: 10 µM unless noted
This is part of a sample that, as a whole, favours compounds with a hit. Of some 83,000 tested, about 20% had one in any assay. Active and inactive are the calls of the source. Rule for the calls: active = growth percent below 10; inactive = the rest.
Outcomes: 1 for active, -1 for inactive

- CN(C)S(=O)(=O)c1ccc(S(=O)(=O)Nc2cccc(Cl)c2N2CCCCC2)cc1: -1
- COc1cccc(-c2nc3sccn3c2-c2ccnc(NCCNS(=O)(=O)c3ccccc3)c2)c1: -1
- Cc1cc(N2CCCCCC2)nc(NC2CCCC(Nc3ccnc4cc(Cl)ccc34)C2)n1 (centres undefined): 1
- COc1ccc(CN2c3ccccc3Sc3ccccc32)c(C(F)(F)F)c1: -1
- Cc1ccc(C2=NN3C(C2)c2cc(Br)ccc2OC32CCN(Cc3ccccc3)CC2)o1 (centres undefined): -1
- COc1ccc(-c2nnc(SCC(=O)c3ccc(Cl)cc3)o2)cc1: -1
- Cc1ccc(O)c(N2C(=NCc3ccco3)NS(=O)(=O)c3cnccc32)c1: -1
- O=C1/C(=C/c2ccc(OCCCOc3ccc(Cl)cc3)cc2)N=C2SCCCN12: -1
- COc1ccc(/C=C2\Oc3cc(OCCCCN4CCCC4)ccc3C2=O)cc1: -1
- C=C(C)C1CC(O)C2(C)CCCC3C2C1CC(C)C3(C)CC/C(C)=C/C(O)C1CCC(=O)c2c(OC)cc(OC)cc21 (centres undefined): -1
- CC1=C[C@H]2c3c(c(O)c(O)c4oc5ccccc5c(=O)c34)[C@H](c3cc(O)c(O)c4oc5ccccc5c(=O)c34)[C@H]2C(C)(C)C1: 1
- COc1cc(-c2nc3ccccc3[nH]2)ccc1OCC(=O)N=Nc1c(O)[nH]c2ccc(Cl)cc12: -1
- Cc1cc(C)nc(SC2=C(Nc3cccc(Cl)c3)C(=O)N(Cc3ccccc3)C2=O)n1: -1
- N#CN1CCC[C@H]1C(=O)N1CCc2c(-c3[nH]nc4ncccc34)cccc21: 1
- COc1ccc2nc(NC(=O)CSc3nnc4n3S(=O)(=O)c3ccccc3N4c3ccccc3)sc2c1: -1
- CC(O)CN1CC(O)=C(c2nc3ccccc3s2)C1=N (centres undefined): -1
- CCCSc1ccc2nc(NC(=O)OC)[nH]c2c1: -1
- Clc1ccc2c(NCCCCNc3nc(N4CCOCC4)nc4ccccc34)ccnc2c1: 1
- CCCCN1CCCn2c1nc1c2c(=O)n(CCC)c(=O)n1CCC: -1
- CSc1nc(Nc2cccc(NC(=O)CCl)c2)c(C#N)c(-c2cccc([N+](=O)[O-])c2)n1: -1
- c1ccc(-c2c(-c3ccccc3)[n+](Cc3ccc4ccccc4c3)c(-c3ccc(-c4nc5ccccc5s4)cc3)n2Cc2ccc3ccccc3c2)cc1: 1
- O=C1/C(=C/c2ccc(Cl)cc2)SC(=S)N1CCc1ccc(O)cc1: -1
- COc1cc(/C=C/c2cc(O)c3cc(C(C)=O)c(=O)oc3c2)cc2c1O[C@]1(C)CC[C@@H](O)C(C)(C)[C@H]1C2: -1
- C=C1C(=O)O[C@H]2[C@H]1CC/C(COC(=O)NCc1ccc(OC)c(OC)c1)=C\CC[C@@]1(C)O[C@@H]21: -1
- O=C1OCC2=C1C(c1ccncc1)c1cc3c(cc1N2CCO)OCO3 (centres undefined): -1
- CCOc1nc(-c2ccccc2)cc2c(O)c(C(=O)O)[nH]c(=O)c12: -1
- CCOc1nc(-c2ccccc2)cc2c(O)c(C(=O)N/N=C/c3ccc(O)cc3O)[nH]c(=O)c12: -1
- COc1cc(C)c(C2C(C#N)=C(N)Oc3n[nH]c(-c4cccs4)c32)cc1C(C)C (centres undefined): -1
- O=C(COc1cccc(/C=C2\CSc3ccccc3C2=O)c1)Nc1nccs1: -1
- COc1cc(CNc2oc(-c3ccccc3)c(-c3ccccc3)c2C#N)cc(CN2CCN(C)CC2)c1O: -1
- COc1ccc2cc(-c3nn(-c4ccc(C(=O)O)cc4)cc3CO)ccc2c1: -1
- Oc1cccc2ccc(N/N=C/c3cc(CN4CCOCC4)c(O)c4ncccc34)nc12: -1
- O=C1/C(=C/C(Cl)=C/c2ccccc2)SC(=S)N1CCc1ccc(O)cc1: -1
- CCCCn1c(-c2ccc(C(=O)O/N=C(\N)c3ccc4c(c3)OCO4)cc2)nc(-c2ccccc2)c1-c1ccccc1: -1
- CNc1ccc(-c2cc(=O)oc3ccc(Cl)cc23)cc1: -1
- O=S(=O)(Nc1ccc(NS(=O)(=O)c2ccccc2)c(Cl)c1)c1ccccc1: -1
- Cc1c(/C=C/[N+](=O)[O-])ccc2c1[nH]c1ccccc12: -1
- Cn1cc(C(=O)c2nc(-c3c[nH]c4ccc(F)cc34)no2)c2cc(F)ccc21: -1
- OC(COc1cccc2ccccc12)CN1CCN(c2ccccc2Cl)CC1 (centres undefined): -1
